Test: Inhibitory activity measured against beta-galactosidase of rat intestinal lactase by colorimetric assay using the D-glucose oxidase-peroxidase method
OBSERVATION TYPE: IC50
Write the numeric value and follow it with the unit.

Prompt: Entry under review: OCC1NC(CO)[C@@H](O)C(O)C1O (stereo partly specified) . Reported IC50?
Completion: 130 µM

----------
Assay: Inhibitory activity measured against beta-galactosidase of bovine liver by colorimetric assay using the D-glucose oxidase-peroxidase method
Design: species or system Bos taurus
Settings: in the assay text read “p-nitrophenyl glycoside method” for “D-glucose oxidase-peroxidase method”
OBSERVATION TYPE: pIC50
// pIC50 is dimensionless: -log10 of concentration (M)

Prompt: May I ask what pIC50 has been recorded for OCC1NC(CO)[C@@H](O)C(O)C1O (stereo partly specified) ?
Completion: 4.07
